Please go through the items and note down their relative viability.
- Test system: LK-2
- assay: relative viability (nuclei count vs DMSO), 5 days (fraction); higher = more cells survive
- applied_conditions: first compound 0.006325 µM
One number for each entry.

// known answers, use as guide
[[record]]
molecule = "CCNC(=O)c1noc(-c2cc(C(C)C)c(O)cc2O)c1-c1ccc(CN2CCOCC2)cc1 [Luminespib] + O=C(CCCCCCC(=O)Nc1ccccc1)NO [Vorinostat] (partner 1 µM)"
reported_metric = "relative viability"
measured = 0.374

[[record]]
molecule = "CCNC(=O)c1noc(-c2cc(C(C)C)c(O)cc2O)c1-c1ccc(CN2CCOCC2)cc1 [Luminespib] + NC(=O)Nc1cc(-c2cccc(F)c2)sc1C(=O)N[C@H]1CCCNC1 [AZD7762] (partner 0.2 µM)"
reported_metric = "relative viability"
measured = 0.481


Here is the next item to consider.
**Q:** # get_value(readout='relative viability', item= CCNC(=O)c1noc(-c2cc(C(C)C)c(O)cc2O)c1-c1ccc(CN2CCOCC2)cc1 [Luminespib] + COc1cccc2cc(-c3nc([C@H]4CC[C@H](C(=O)O)CC4)n4ncnc(N)c34)[nH]c12 [OSI-027] (partner 0.5 µM) )
**A:** 0.191

* * *

Please go through the items and note down their relative viability.
- System: NCI-H2228
- assay: relative viability (nuclei count vs DMSO), 5 days (fraction); higher = more cells survive
- applied_conditions: first compound 0.003162 µM
Give bare numbers.

// known answers, use as guide
[[record]]
molecule = "Cc1cn(-c2cc(NC(=O)c3ccc(C)c(Nc4nccc(-c5cccnc5)n4)c3)cc(C(F)(F)F)c2)cn1 [Nilotinib] + Cc1nc(Nc2ncc(C(=O)Nc3c(C)cccc3Cl)s2)cc(N2CCN(CCO)CC2)n1 [Dasatinib] (partner 0.075 µM)"
measured_target = "NCI-H2228"
measured = 0.622

[[record]]
molecule = "Cc1cn(-c2cc(NC(=O)c3ccc(C)c(Nc4nccc(-c5cccnc5)n4)c3)cc(C(F)(F)F)c2)cn1 [Nilotinib] + C[C@@H](Oc1cc(-c2cnn(C3CCNCC3)c2)cnc1N)c1c(Cl)ccc(F)c1Cl [Crizotinib] (partner 1 µM)"
measured_target = "NCI-H2228"
measured = 0.418


Here is the next item to consider.
**Q:** # get_value(readout='relative viability', item= Cc1cn(-c2cc(NC(=O)c3ccc(C)c(Nc4nccc(-c5cccnc5)n4)c3)cc(C(F)(F)F)c2)cn1 [Nilotinib] + Cc1nc(NC(=O)N2CCC[C@H]2C(N)=O)sc1-c1ccnc(C(C)(C)C(F)(F)F)c1 [Alpelisib] (partner 2 µM) )
**A:** 0.763

* * *

- Tested on: NCI-H2126
- assay: relative viability (nuclei count vs DMSO), 5 days (fraction); higher = more cells survive
- applied_conditions: first compound 0.002 µM
Please go through the items and note down their relative viability.
Answers are plain numbers.

// known answers, use as guide
[[record]]
compound = "CCNC(=O)c1noc(-c2cc(C(C)C)c(O)cc2O)c1-c1ccc(CN2CCOCC2)cc1 [Luminespib] + COc1cc2c(Oc3ccc(NC(=O)C4(C(=O)Nc5ccc(F)cc5)CC4)cc3F)ccnc2cc1OCCCN1CCOCC1 [Foretinib] (partner 0.25 µM)"
measured = 0.865

[[record]]
compound = "CCNC(=O)c1noc(-c2cc(C(C)C)c(O)cc2O)c1-c1ccc(CN2CCOCC2)cc1 [Luminespib] + N=C(N)NC(=N)NCCc1ccccc1 [Phenformin] (partner 250 µM)"
measured = 0.523

[[record]]
compound = "CCNC(=O)c1noc(-c2cc(C(C)C)c(O)cc2O)c1-c1ccc(CN2CCOCC2)cc1 [Luminespib] + CC(=O)Nc1cccc(-n2c(=O)n(C3CC3)c(=O)c3c(Nc4ccc(I)cc4F)n(C)c(=O)c(C)c32)c1 [Trametinib] (partner 0.02 µM)"
measured = 0.608


**Q:** # get_value(readout='relative viability', item= CCNC(=O)c1noc(-c2cc(C(C)C)c(O)cc2O)c1-c1ccc(CN2CCOCC2)cc1 [Luminespib] + C[C@@H](Oc1cc(-c2cnn(C3CCNCC3)c2)cnc1N)c1c(Cl)ccc(F)c1Cl [Crizotinib] (partner 1 µM) )
**A:** 1.08
